For each of the compounds below, state its Smax.
# System: Rattus norvegicus
# protocol-description: Secretion of Bile in Bile Fistula rats after the iv administration of compound, expressed as the maximum secretion rate
# Type: ADME, organism-based
# particulars: in vivo
Numbers only, in µL/min/kg.

[
  {
    "compound": "CC(CCC(=O)N1CCC[C@@H]1C(=O)O)C1CC[C@H]2[C@@H]3[C@@H](O)CC4C[C@H](O)CC[C@]4(C)[C@H]3CC[C@]12C (stereo not given in full)",
    "Smax / µL/min/kg": 90
  },
  {
    "compound": "CO[C@H]1C[C@H](C(=O)O)N(C(=O)CCC(C)C2CC[C@H]3[C@@H]4[C@@H](O)CC5C[C@H](O)CC[C@]5(C)[C@H]4CC[C@]23C)C1 (stereo not given in full)",
    "Smax / µL/min/kg": 90
  },
  {
    "compound": "CC(CCC(=O)N1C[C@@H](O)C[C@@H]1C(=O)O)C1CC[C@H]2[C@@H]3[C@@H](O)CC4C[C@H](O)CC[C@]4(C)[C@H]3CC[C@]12C (stereo not given in full)",
    "Smax / µL/min/kg": 97
  }
]

Batch lookup, Smax per entry.
1. C[C@H](CCC(=O)O)[C@H]1CC[C@H]2[C@@H]3[C@@H](O)C[C@@H]4C[C@H](O)CC[C@]4(C)[C@H]3CC[C@]12C
2. CC(CCC(=O)N1CCC[C@H]1C(=O)O)C1CC[C@H]2[C@@H]3[C@@H](O)CC4C[C@H](O)CC[C@]4(C)[C@H]3CC[C@]12C (stereo not given in full)

116
65

* * *

# protocol-description: The compound was incubated with human stools and tested for determining the stability towards 7-dehydroxylation
# Assay type: ADME, organism-based
parameter: half-life (min)
Give bare numbers, in min.

Supply reported half-life belonging to this compound: C[C@H](CCC(=O)O)[C@H]1CC[C@H]2[C@@H]3[C@@H](O)C[C@@H]4C[C@H](O)CC[C@]4(C)[C@H]3CC[C@]12C [URSODIOL]
120

* * *

# System: cholylglycine hydrolase
# protocol-description: The compound was incubated with cholylglycine hydrolase and tested for determining the stability towards C-24 Deamination
# Assay type: ADME
# particulars: cholylglycine hydrolase
Exercise: state measured half-life for each of the molecules provided.

[
  {
    "molecule": "CC(CCC(=O)N1CCC[C@@H]1C(=O)O)C1CC[C@H]2[C@@H]3[C@@H](O)CC4C[C@H](O)CC[C@]4(C)[C@H]3CC[C@]12C (some centres undefined)",
    "half-life": "> 72 h"
  },
  {
    "molecule": "CC(CCC(=O)NCC(=O)O)C1CC[C@H]2[C@@H]3[C@H](O)CC4C[C@H](O)CCC4(C)[C@H]3CCC12C (some centres undefined)",
    "half-life": "4 h"
  }
]

I'm hoping you can list half-life for every molecule here, please.
1. CC(CCC(=O)NCC(=O)O)C1CC[C@H]2[C@@H]3C[C@H](O)C4C[C@H](O)CCC4(C)[C@H]3CCC12C (some centres undefined)
2. CC(CCC(=O)N1CCC[C@@H]1C(=O)O)C1CC[C@H]2[C@@H]3C[C@H](O)C4C[C@H](O)CC[C@]4(C)[C@H]3CC[C@]12C (some centres undefined)
3. C[C@H](CCC(=O)NCCS(=O)(=O)O)[C@H]1CC[C@H]2[C@@H]3[C@H](O)C[C@@H]4C[C@H](O)CC[C@]4(C)[C@H]3C[C@H](O)[C@]12C
4. CC(CCC(=O)N1CCC[C@H]1C(=O)O)C1CC[C@H]2[C@@H]3[C@@H](O)CC4C[C@H](O)CC[C@]4(C)[C@H]3CC[C@]12C (some centres undefined)

1. 5 h
2. > 72 h
3. 4 h
4. > 72 h

// for each molecule below, give its half-life
1. CO[C@H]1C[C@H](C(=O)O)N(C(=O)CCC(C)C2CC[C@H]3[C@@H]4[C@@H](O)CC5C[C@H](O)CC[C@]5(C)[C@H]4CC[C@]23C)C1 (some centres undefined)
2. CC(CCC(=O)N1C[C@@H](O)C[C@@H]1C(=O)O)C1CC[C@H]2[C@@H]3[C@@H](O)CC4C[C@H](O)CC[C@]4(C)[C@H]3CC[C@]12C (some centres undefined)
3. CC(CCC(=O)N1CCC[C@@H]1C(=O)O)C1CC[C@H]2[C@@H]3[C@H](O)[C@H](O)C4C[C@H](O)CC[C@]4(C)[C@H]3CC[C@]12C (some centres undefined)

1: > 72 h; 2: > 72 h; 3: > 72 h
